Biological target: MSI1 full-length (mouse, UniProt Q61474 1-362)
Sequence (Q61474 whole entry): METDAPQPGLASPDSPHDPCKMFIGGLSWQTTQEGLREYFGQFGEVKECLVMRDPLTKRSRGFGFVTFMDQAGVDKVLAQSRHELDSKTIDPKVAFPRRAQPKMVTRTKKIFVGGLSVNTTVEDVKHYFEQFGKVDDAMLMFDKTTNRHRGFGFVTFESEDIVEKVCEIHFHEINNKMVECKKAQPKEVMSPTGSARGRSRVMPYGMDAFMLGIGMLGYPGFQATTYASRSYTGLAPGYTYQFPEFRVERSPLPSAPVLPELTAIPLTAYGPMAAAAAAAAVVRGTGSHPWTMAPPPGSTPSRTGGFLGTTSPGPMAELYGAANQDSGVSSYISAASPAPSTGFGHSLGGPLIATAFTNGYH
Assay: nsRBNS (natural sequence RNA bind-n-seq); RBNS binding buffer (assumed for nsRBNS): 25 mM Tris pH 7.5, 150 mM KCl, 3 mM MgCl2, 0.01% Triton X-100, 500 ug/ml BSA, 20 U/ml SUPERase-In, 4 C; UNK is unkempt and MSI1 is Musashi-1; names of the RNAs are library labels; protein concentration not given here; high values mean tight binding
In all, about 5,800 sequences were measured (“enrichment r”: median about 0.54, highest 2% from about 16 on). This excerpt belongs to a sample that is enriched for the highest values.
value_kind: binding signal

ENSG00000064393:stop:overlap|stop_codon|ENSG00000064393|stop_codon|NA|stop_codon (ssRNA) RNA: GGGAGUUCUACAGUCCGACGAUCUCUCCCUGGAGAGUGGUUUUCCUGCUUUUCUGCUGCUAGAAAUGUUGCUGUAUGGGAGCUAGUACAAUAGAAAGUGCCCAGUGACUGCAGGCGACCCUUACCGAGGAUUUUAUUCAAGUACAACAGAGGAUUGAGCAUCA :: 0.605 enrichment R

Next up:
Given item chr5:141515350:141515460:-|3pUTR|ENSG00000131504|msi1_unk|total|mutant (ssRNA) RNA: GGGAGUUCUACAGUCCGACGAUCCUCAGCUUUCCAUCCCCAGCCCGGAAGAAAGAAUGGCACUCUUGGGCUUGGCCCAGAAUCCGAGUUAUCCGAGCAAGAGAGAGCUCCGGAAGCAUGAGGGCAACUACCGUGAGGCCUUAUCAACAGAGGAUUGAGCAUCA , the value recorded as its binding signal is 0.337 enrichment R
